Molecular target: T1, hRARα/mRXRα LBD heterodimer (human | mouse, UniProt P10276 153-421; P28700 228-467)
T1 construct: Heterodimer formed beforehand; small-molecule ligands (atRA, LG100754, AM580, BMS614, BMS649, 9-cisRA, HX531) differ between experiments and are named in the assays; also called RARα/RXRα LBD; RAR/RXR; not shown: His6, N-terminal, kept; copies: 1 + 1
T1 sequence (looked up) 1: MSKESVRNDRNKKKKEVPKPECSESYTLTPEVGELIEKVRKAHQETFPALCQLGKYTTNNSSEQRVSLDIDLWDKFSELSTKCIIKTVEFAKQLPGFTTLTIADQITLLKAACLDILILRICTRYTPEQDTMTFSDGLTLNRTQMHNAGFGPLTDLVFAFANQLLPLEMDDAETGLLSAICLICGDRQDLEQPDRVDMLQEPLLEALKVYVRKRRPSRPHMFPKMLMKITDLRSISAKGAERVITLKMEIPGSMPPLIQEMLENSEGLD
T1 sequence (looked up) 2: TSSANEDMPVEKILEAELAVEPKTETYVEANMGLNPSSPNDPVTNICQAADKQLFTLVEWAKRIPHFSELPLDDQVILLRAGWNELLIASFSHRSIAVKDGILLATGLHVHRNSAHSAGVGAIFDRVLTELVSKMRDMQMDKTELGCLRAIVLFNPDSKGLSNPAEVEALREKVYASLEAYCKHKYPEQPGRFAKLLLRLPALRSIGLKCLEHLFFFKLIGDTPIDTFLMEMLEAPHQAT
Experiment: fluorescence polarisation; fluorescence anisotropy; hRARα/mRXRα LBDs added to a fixed concentration of TAMRA-SRC-1 NR2 peptide; 20°C; 10 mM TRIS-HCl pH 7.5, 150 mM NaCl, 10 mM DTT; apparent; RAR apo, RXR apo
Conditions: both partners purified
No end group written: not given here.

BINDER | Kd [µM]
RHKILHRLLQEGS (also: TAMRA label, position not given here, also called (TAMRA) – SRC-1 NR2 peptide; source: bought: Neosystem (Strasbourg, France)) [TAMRA-labeled SRC-1 NR2 peptide (686-RHKILHRLLQEGS-698)] | 2
